B1: Formin-binding protein 4, residues 200 to 261; numbered along this chain, Q8N3X1 (parent)
chain: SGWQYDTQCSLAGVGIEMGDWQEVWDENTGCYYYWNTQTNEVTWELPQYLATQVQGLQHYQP

# Variants of: B1
# ASSAY PROCEDURE: abundance fitness (aPCA) (normalised: wild type 0, dead -1); higher = more abundant; growth selection in yeast, the domain comes from the species named
# CONDITION LABEL: Homo sapiens
READOUT NAME: abundance fitness
Keep it simple and answer with nothing but the number.

Suppose we examine the variant D26Q ; what abundance fitness value has been reported?
-0.181

Suppose we examine the variant Y49F ; what abundance fitness value has been reported?
0.004

Suppose we examine the variant D26I ; what abundance fitness value has been reported?
-0.593

Suppose we examine the variant G15F ; what abundance fitness value has been reported?
-0.583

Suppose we examine the variant Y34V ; what abundance fitness value has been reported?
-0.669

Suppose we examine the variant Y32A ; what abundance fitness value has been reported?
-0.502

Suppose we examine the variant C31P ; what abundance fitness value has been reported?
-0.742

Suppose we examine the variant V54N ; what abundance fitness value has been reported?
-0.48

Suppose we examine the variant W35M ; what abundance fitness value has been reported?
-0.189

Suppose we examine the variant C31F ; what abundance fitness value has been reported?
0.083

Suppose we examine the variant N36G ; what abundance fitness value has been reported?
-0.64

Suppose we examine the variant Q58E ; what abundance fitness value has been reported?
-0.059

Suppose we examine the variant A12P ; what abundance fitness value has been reported?
-0.448

Suppose we examine the variant L57R ; what abundance fitness value has been reported?
-0.029

Suppose we examine the variant Q55I ; what abundance fitness value has been reported?
-0.321

Suppose we examine the variant N40F ; what abundance fitness value has been reported?
-0.37

Suppose we examine the variant E41R ; what abundance fitness value has been reported?
-0.158

Suppose we examine the variant L57N ; what abundance fitness value has been reported?
-0.212

Suppose we examine the variant Y49L ; what abundance fitness value has been reported?
-0.126

Suppose we examine the variant A12Y ; what abundance fitness value has been reported?
-0.025

Suppose we examine the variant V54K ; what abundance fitness value has been reported?
-0.589

Suppose we examine the variant Q61T ; what abundance fitness value has been reported?
0.263

The reported measurements were obtained from the Human Domainome abundance scans (Beltran et al. 2025).
